- assayedSystem: C-C chemokine receptor type 5 (CCR5) (Homo sapiens, UniProt P51681 P51681:1-352)
- Sequence (P51681 whole entry, one chain of several): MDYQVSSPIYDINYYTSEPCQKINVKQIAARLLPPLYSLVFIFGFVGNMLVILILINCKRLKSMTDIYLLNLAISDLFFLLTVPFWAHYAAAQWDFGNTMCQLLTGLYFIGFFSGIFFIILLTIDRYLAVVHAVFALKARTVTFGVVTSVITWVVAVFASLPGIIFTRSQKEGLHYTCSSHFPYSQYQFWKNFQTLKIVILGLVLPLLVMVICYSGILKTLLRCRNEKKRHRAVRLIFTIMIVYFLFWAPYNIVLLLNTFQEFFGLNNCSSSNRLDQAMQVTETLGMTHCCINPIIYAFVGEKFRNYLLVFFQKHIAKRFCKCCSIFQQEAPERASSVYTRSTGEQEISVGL
- assayProtocol: flow; apparent Kd, live cells, RT 30 min, DPBS with 1 mM Ca2+/1 mM Mg2+ and tRNA; R2 0.95; reduced by CCR5 siRNA knockdown; no binding to CCR5-negative U373-Magi
- conditionDetails: tags: U373-Magi-CCR5E cells
pKd: −log10 of the molar value.
reportedMetric: pKd

# binder, reportedMetric, number
records = [
    ("G-3 aptamer (ssRNA, 2'-F pyrimidines (2'-F-C, 2'-F-U)) RNA: GGGAGGACGAUGCGGGCCUUCGUUUGUUUCGUCCACAGACGACUCGCCCGA", "pKd", 6.96),
]

Taken from patent US9605266.
